Measured values drawn from paper PMC8829872 for this set.

# testDetails: Extensive tissue distribution study in CT26 tumor-bearing mice
# Format: in vivo, Balb/c mice
# recordedConditions: Balb/c, mouse; 75 mg/kg PO; Brain; read-out: Cmax

| compound | measureUnit | Cmax |
| --- | --- | --- |
| C[C@@H]1COCCN1c1cc(C2([S@](C)(=N)=O)CC2)nc(-c2cc[nH]c3nccc2-3)n1 [AZD6738] | ng/mL | 854 |

###

# testDetails: in vivo
# recordedConditions: Balb/c, mouse, po, 2 mg/kg

| compoundStructureString | Tmax (h) |
| --- | --- |
| C[C@@H]1COCCN1c1cc(C2([S@](C)(=N)=O)CC2)nc(-c2cc[nH]c3nccc2-3)n1 | 1 |
